Target: the molecule itself
Assay: SEC + native gel or EMSA
ASSAY_READOUT: stoichiometry N
Please state the value as a number alone, without comment.

Request: Please report the measured stoichiometry N for TqsA E280Q (natural protein, E. coli K-12, UniProt P0AFS5 1-344, looked up) MAKPIITLNGLKIVIMLGMLVIILCGIRFAAEIIVPFILALFIAVILNPLVQHMVRWRVPRVLAVSILMTIIVMAMVLLLAYLGSALNELTRTLPQYRNSIMTPLQALEPLLQRVGIDVSVDQLAHYIDPNAAMTLLTNLLTQLSNAMSSIFLLLLTVLFMLLEVPQLPGKFQQMMARPVEGMAAIQRAIDSVSHYLVLKTAISIITGLVAWAMLAALDVRFAFVWGLLAFALNYIPNIGSVLAAIPPIAQVLVFNGFYEALLVLAGYLLINLVFGNILQPRIMGRGLGLSTLVVFLSLIFWGWLLGPVGMLLSVPLTIIVKIALEQTAGGQSIAVLLSDLNKE
Response: 5
